Target: IGP1^ECD (Arabidopsis thaliana)
Experiment: ITC
Assay type: binding
Settings: 10 mM Bis-Tris pH 6.0, 100 mM NaCl, 25 °C; LRR3-5 groove; 1:1 complex in crystal
Readout Label: Kd

Value lookup for Kd; key = OC[C@H]1O[C@@H](O[C@H]2[C@H](O)[C@@H](O)[C@H](O[C@H]3[C@H](O)[C@@H](O)C(O)O[C@@H]3CO)O[C@@H]2CO)[C@H](O)[C@@H](O)[C@@H]1O (stereo partly shown) [CEL3, cellotriose]
~1610 nM

These data points were gathered from paper doi:10.1101/2025.10.05.680433v1.
